Could you please report measured MEAN CORPUSCULAR HEMOGLOBIN CONCENTRATION for the items listed next?
- Species: Rattus norvegicus
- method notes: DrugMatrix - Regimen: Daily Repeat
- Format: toxicity, organism-based, Sprague-Dawley
- Set-up: regimen Daily Repeat, gender Male, age 6-8 weeks
- assay context: in vivo, po, 0 mg/kg, 120 h, tissue Blood, route oral GAVAGE, dose level Control, time 5 day, […]
Report only the number, with the unit G/DL understood.

Q: Value lookup for MEAN CORPUSCULAR HEMOGLOBIN CONCENTRATION; key = O=c1c(-c2ccc(O)cc2)coc2cc(O)cc(O)c12
A: 38.42

Q: Do the same for CC(=O)Oc1ccccc1C(=O)O please
A: 38.95

Q: Do the same for CS(=O)(=O)Nc1ccc([N+](=O)[O-])cc1Oc1ccccc1 [NIMESULIDE] please
A: 40.67

Q: Do the same for CCCCC(=O)N(Cc1ccc(-c2ccccc2-c2nnn[nH]2)cc1)[C@H](C(=O)O)C(C)C please
A: 39.08

Q: Do the same for CCc1ccc(CCOc2ccc(CC3SC(=O)NC3=O)cc2)nc1 (configuration not stated) please
A: 37.83

Q: Do the same for CC(C)c1c(C(=O)Nc2ccccc2)c(-c2ccccc2)c(-c2ccc(F)cc2)n1CC[C@@H](O)C[C@@H](O)CC(=O)O please
A: 38.42

Q: Do the same for c1ccoc1 please
A: 32
